- TARGET OR SYSTEM: DRB3*0101 (Homo sapiens, UniProt P01903+P79483)
- PROTOCOL NOTES: biochemical
Measured pIC50 by item
On this scale, pIC50 is minus log10 of a concentration expressed in M (mol/L).

Item CC[C@H](C)[C@H](NC(=O)[C@H](Cc1c[nH]c2ccccc12)NC(=O)[C@H](Cc1ccc(O)cc1)NC(=O)CNC(=O)[C@H](CCSC)NC(=O)[C@H](CC(=O)O)NC(=O)[C@H](C)NC(=O)[C@H](Cc1c[nH]cn1)NC(=O)[C@@H](NC(=O)[C@H](C)N)C(C)C)C(=O)N[C@@H](CCC(=O)O)C(=O)N[C@@H](CO)C(=O)N[C@@H](CCC(N)=O)C(=O)N[C@@H](CCCCN)C(=O)N[C@@H](CC(N)=O)C(=O)O has what recorded pIC50? 7.62

Same for CC[C@H](C)[C@H](N)C(=O)N[C@@H](CO)C(=O)N[C@@H](Cc1ccc(O)cc1)C(=O)NCC(=O)NCC(=O)NCC(=O)N[C@@H](Cc1c[nH]c2ccccc12)C(=O)N[C@@H](CCCNC(=N)N)C(=O)N[C@@H](CC(C)C)C(=O)N[C@@H](CO)C(=O)N[C@@H](C)C(=O)N[C@@H](CCC(N)=O)C(=O)N[C@@H](Cc1c[nH]c2ccccc12)C(=O)N[C@@H](CCC(N)=O)C(=O)N[C@@H](CCCCN)C(=O)O 5.69

Same for CC[C@H](C)[C@H](N)C(=O)N[C@@H](CCCNC(=N)N)C(=O)N[C@@H](Cc1ccc(O)cc1)C(=O)N[C@@H](CCC(N)=O)C(=O)N[C@H](C(=O)N[C@H](C(=O)N[C@@H](C)C(=O)N[C@H](C(=O)N[C@@H](CCCCN)C(=O)N[C@@H](CO)C(=O)N[C@@H](CCC(=O)O)C(=O)N[C@@H](Cc1c[nH]cn1)C(=O)N[C@H](C(=O)NCC(=O)N[C@@H](CCCNC(=N)N)C(=O)O)[C@@H](C)O)[C@@H](C)O)[C@@H](C)O)[C@@H](C)O 4.89

---

- TARGET OR SYSTEM: DRB1*0301 (Homo sapiens, UniProt P01903+P01911, A100K/A102G/A103R/A169T/F55Y/I96L/K41T/L162R/M171V/P40S/Q125H/Q178H/Q39Y/R42S/S66N/T106N/T262R/W38E/Y61H)
- Sequence (P01903 26-254, other chains not shown): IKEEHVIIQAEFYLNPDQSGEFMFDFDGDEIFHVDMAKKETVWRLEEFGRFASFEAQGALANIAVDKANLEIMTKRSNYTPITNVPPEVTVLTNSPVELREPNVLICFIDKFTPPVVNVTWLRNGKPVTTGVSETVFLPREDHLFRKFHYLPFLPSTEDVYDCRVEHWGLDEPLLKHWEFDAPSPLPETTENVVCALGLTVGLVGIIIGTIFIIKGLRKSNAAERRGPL
- PROTOCOL NOTES: biochemical
OUTCOME MEASURE: pIC50
On this scale, pIC50 is minus log10 of a concentration expressed in M (mol/L).

Item CC[C@H](C)[C@H](NC(=O)[C@H](C)N)C(=O)N[C@@H](CCC(N)=O)C(=O)N[C@@H](CCC(N)=O)C(=O)N[C@H](C(=O)N[C@@H](CCCNC(=N)N)C(=O)N[C@@H](CO)C(=O)N[C@@H](CC(C)C)C(=O)N[C@H](C(=O)NCC(=O)N[C@@H](CC(N)=O)C(=O)N[C@@H](CCC(=O)O)C(=O)N[C@@H](CCC(=O)O)C(=O)N[C@@H](Cc1ccccc1)C(=O)N[C@@H](CC(C)C)C(=O)N[C@@H](CC(=O)O)C(=O)N[C@@H](Cc1ccc(O)cc1)C(=O)O)[C@@H](C)CC)C(C)C has what recorded pIC50? 6.75
